target: SARS-CoV-2 spike receptor binding domain (RBD), wild type (SARS-CoV-2, UniProt P0DTC2 319-539); test: ELISA, RBD protein coated, mAb titrated
ENDPOINT_NAME: EC50 (ng/mL)

>>> numeric_result("C549 (antibody, V domains shown) VH: QVQLVQSGAEVKKPGSSVKVSCKASGGTFSTSAISWVRQAPGQGLEWMGGIIPFFGTPNYAQKFQGRVTIIADESTTTAYMELSGLRFEDSAVYYCARREPYGPRDYYYFFGMDVWGPGTTVTVSS VL: QSALTQPPFASASLGASVTLTCTLSSDYSYYKVDWYQQRPGKGPRFVIRVGPGGIVGSKGDGFPDRFSVLGSGLNRSLTINNIQEEDEGDYHCGADEGSGGTFVGVFGGGTKLTV")
1.76
>>> numeric_result("C545 (antibody, V domains shown) VH: EVQLLESGGGLVKPGGSLRLSCAASGFTFSDYSMTWVRQAPGKGLEWVSFISSSSTYIYYADSVKGRFTISRDNAKSSLYLQMNRLRAEDTAVYYCTRVQVGARGWADYWGQGTLVTVSS VL: NFMLTQPLSVSESPGKTVTISCTRSSGSIASNYVQWYQQRPGGAPTTVIYEDTQRPSGVPDRFSGSIDSSSNSASLTISGLKTEDEADYYCQSCDTINWVFGGGTKLTVV")
3.68
>>> numeric_result("C564 (antibody, V domains shown) VH: EVQLLESGGGLVQPGTSLRLSCAASGFTFSSYAMSWVRQAPGKGLEWVSAISSSGGSTYYADSVKGRFTISRDNSKNTLYLHMNSLRAEDTAVYYCATERIAVAGTRMYNWFDPWGQGTLVTVSS VL: DIQMTQSPSSLSASVGDRVTLTCRASQSISSYLNWYQQKPGKAPNLLIYAASSLQSGVPSRFSGSGSGTDFTLTISSLQPEDFATYYCQQSYSAPPWTFGQGTKVEIK")
14.6
